Experiment: Blood clearance in rat
Format: ADME, organism-based
// reported clearance for each item listed
Write the answer as a number in mL/min/kg, unit excluded.

# annotated cases, reported clearance shown
Q: Quick one: clearance for O=C(Cc1nnc(-c2cc(Cl)cc(C3CCN(CC(F)F)CC3)c2)o1)N1CCC(n2c(=O)[nH]c3ncccc32)CC1 ?
Ans: 67

Q: Try this molecule next: O=C(Cc1nnc(-c2cc(Cl)cc(N3CCOCC3)c2)o1)N1CCC(n2c(=O)[nH]c3ncccc32)CC1
Ans: 70

Further cases:
Q: // returns reported clearance for input CN(C)CCOc1cc(Cl)cc(-c2nnc(CC(=O)N3CCC(N4CCc5ccccc5NC4=O)CC3)o2)c1
Ans: 50

Q: Also Cc1ncc(-c2cc(Cl)cc(-c3nnc(CC(=O)N4CCC(n5c(=O)[nH]c6ncccc65)CC4)o3)c2)n1C , if possible.
Ans: 52

Q: Now consider CN1CCN(c2cc(Cl)cc(-c3nnc(CC(=O)N4CCC(n5c(=O)[nH]c6ncccc65)CC4)o3)c2)CC1 and answer again.
Ans: 72

The reported numbers originate from ChEMBL document CHEMBL1156894.
